- SYSTEM UNDER TEST: Torsin-1A (Homo sapiens) (UniProt O14656)
- Sequence (O14656 whole entry, looked up): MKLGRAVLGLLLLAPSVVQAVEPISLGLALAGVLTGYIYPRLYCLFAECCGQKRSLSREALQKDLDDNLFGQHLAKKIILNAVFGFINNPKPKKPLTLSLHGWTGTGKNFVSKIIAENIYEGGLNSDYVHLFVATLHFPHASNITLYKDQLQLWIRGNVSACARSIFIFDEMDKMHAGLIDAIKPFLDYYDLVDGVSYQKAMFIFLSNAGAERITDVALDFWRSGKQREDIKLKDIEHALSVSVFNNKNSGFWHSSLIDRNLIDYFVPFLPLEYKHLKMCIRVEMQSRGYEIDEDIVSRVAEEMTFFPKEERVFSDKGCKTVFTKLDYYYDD
- ASSAY TEXT: torsin A mutant lysate binding on microarrays – cell lysate, small-molecule microarray, COS7 lysate, 635/667 nm fluorescence, primary screen (AID 1150);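 note: score pools 667 nm emission and signal to noise measuring lysate protein binding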
- TEST SETTINGS: COS7 hTOR1A mutant lysate, 635 nm fluorescence, higher = more signal
PROPERTY MEASURED: composite z-score

CN(C)C(=O)[C@]1(Cc2ccccc2N=[N+]=[N-])N=C(c2ccc(OCCCO)cc2)O[C@@H]1c1ccccc1CN=[N+]=[N-]; 0.84
C=CCC(OC(C)=O)[C@@H]1[C@@H](N(Cc2ccc(-c3cccc(C(F)(F)F)c3)o2)C(=O)c2cccc3ccccc23)c2cc(OCCCO)ccc2N1C(=O)c1ccc(-c2ccccc2)cc1 (stereo partly drawn); -0.138

Pending compound:
Lookup: Can you share its composite z-score? I mean this compound: C=C[C@@H](O)[C@H]1CC(c2ccccc2)=NO1
Found: 0.334
